Data origin, for the record: patent US11111220B2

- TEST SYSTEM: Human α2δ-1 Subunit of Cav2.2 Calcium Channel (Homo sapiens, UniProt P54289)
- Sequence (P54289 25-1103): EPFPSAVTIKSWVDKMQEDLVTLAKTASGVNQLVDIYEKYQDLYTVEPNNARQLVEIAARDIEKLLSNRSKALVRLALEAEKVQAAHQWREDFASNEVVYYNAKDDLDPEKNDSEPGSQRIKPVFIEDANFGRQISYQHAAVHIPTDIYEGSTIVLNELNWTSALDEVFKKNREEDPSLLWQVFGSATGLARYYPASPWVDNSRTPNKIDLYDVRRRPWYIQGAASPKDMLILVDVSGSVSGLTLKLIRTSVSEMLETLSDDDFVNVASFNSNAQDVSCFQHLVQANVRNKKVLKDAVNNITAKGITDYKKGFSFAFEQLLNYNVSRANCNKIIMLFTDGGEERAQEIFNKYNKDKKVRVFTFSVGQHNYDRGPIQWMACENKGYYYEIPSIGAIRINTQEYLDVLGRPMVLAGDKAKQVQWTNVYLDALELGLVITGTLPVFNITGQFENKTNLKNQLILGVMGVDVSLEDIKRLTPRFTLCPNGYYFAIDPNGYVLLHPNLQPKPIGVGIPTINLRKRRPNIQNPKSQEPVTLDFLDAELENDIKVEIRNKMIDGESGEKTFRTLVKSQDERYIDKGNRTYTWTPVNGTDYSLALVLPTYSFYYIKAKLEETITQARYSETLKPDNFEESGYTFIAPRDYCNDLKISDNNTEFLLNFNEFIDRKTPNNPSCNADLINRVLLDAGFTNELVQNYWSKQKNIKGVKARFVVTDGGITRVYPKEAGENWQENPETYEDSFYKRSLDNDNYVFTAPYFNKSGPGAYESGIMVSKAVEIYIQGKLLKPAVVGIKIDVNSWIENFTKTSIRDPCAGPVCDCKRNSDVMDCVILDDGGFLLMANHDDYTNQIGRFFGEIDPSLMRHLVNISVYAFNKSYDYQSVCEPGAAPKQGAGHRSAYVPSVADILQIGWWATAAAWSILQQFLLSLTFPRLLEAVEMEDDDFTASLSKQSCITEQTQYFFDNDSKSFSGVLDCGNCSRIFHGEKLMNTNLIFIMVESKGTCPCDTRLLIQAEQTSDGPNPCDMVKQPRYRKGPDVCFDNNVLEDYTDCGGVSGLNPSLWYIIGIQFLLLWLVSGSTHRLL
- PROTOCOL DETAILS: Binding assay to human α2δ-1 subunit of Cav2.2 calcium channel ([3H]-Gabapentin)
- TEST CONDITIONS: Table 1; human α2δ-1 enriched membranes, 15 nM [3H]-Gabapentin; read-out: Ki(nM) alpha2delta Hum
# Lookup of reported Ki keyed by entry

Some molecules with recorded Ki:
CNCCC(OCc1cccc(NC(=O)c2cnc(SC)nc2)c1)c1ccccc1 (stereo not drawn) [Example 44]    ≥ 3000 nM
CNCCC(OCc1cccc(Nc2ncccn2)c1)c1ccccc1 (stereo not drawn) [Example 59]    ≥ 3000 nM
CNCCC(OCc1cccc(NC(=O)c2ccccc2)c1)c1cccs1 (stereo not drawn) [Example 46]    ≥ 3000 nM

GET /value?item= CNCCC(OCc1cccc(NC(=O)c2ccccc2)c1)c1ccccc1 (stereo not drawn) [Example 39] &field=Ki returns ≥ 3000 nM

GET /value?item= CCNc1ncc(C(=O)N(C)c2cccc(COC(CCNC)c3ccccc3)c2)c(N2CCCC2)n1 (stereo not drawn) [Example 37] &field=Ki returns 500 to 3000 nM
